Biological target: Acetylcholinesterase (Musca domestica) (UniProt Q7YWJ9)
Sequence (Q7YWJ9 1-692): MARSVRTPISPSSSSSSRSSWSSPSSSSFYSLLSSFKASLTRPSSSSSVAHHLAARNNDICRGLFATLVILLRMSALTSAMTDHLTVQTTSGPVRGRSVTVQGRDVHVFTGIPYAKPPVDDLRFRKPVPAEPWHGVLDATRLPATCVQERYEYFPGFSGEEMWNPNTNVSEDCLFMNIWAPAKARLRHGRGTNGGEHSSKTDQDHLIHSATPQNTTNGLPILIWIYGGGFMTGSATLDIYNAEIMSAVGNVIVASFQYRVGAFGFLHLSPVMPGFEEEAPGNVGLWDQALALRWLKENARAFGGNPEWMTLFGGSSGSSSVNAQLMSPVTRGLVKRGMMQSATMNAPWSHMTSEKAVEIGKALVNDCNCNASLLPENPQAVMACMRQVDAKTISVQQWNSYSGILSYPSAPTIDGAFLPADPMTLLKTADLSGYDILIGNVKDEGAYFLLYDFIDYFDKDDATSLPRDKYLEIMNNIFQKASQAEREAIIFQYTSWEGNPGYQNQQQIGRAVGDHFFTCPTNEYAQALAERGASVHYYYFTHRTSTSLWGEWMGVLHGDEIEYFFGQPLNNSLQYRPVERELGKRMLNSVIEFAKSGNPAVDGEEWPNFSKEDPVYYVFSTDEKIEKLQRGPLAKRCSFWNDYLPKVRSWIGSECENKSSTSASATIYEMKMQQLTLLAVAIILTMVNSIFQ
Experiment: Dual-site binding inhibition of AChE in Musca domestica (house fly) brain at 100 mg/l
Exercise: for every item that follows, state its recorded inhibition.
Field format: number, assumed %, no unit text.

Per the record, CNC(=O)Oc1cccc(OC/C=C/COc2ccc([N+](=O)[O-])cc2)c1 has inhibition of 45

Per the record, CN(C)C(=O)Oc1ccccc1OCCCOc1ccc(C(F)(F)F)cc1 has inhibition of 25

Per the record, CNC(=O)Oc1cccc(OCCCCOc2ccccc2[N+](=O)[O-])c1 has inhibition of 80

Per the record, CNC(=O)Oc1cccc(OC/C=C/COc2ccc(C(F)(F)F)cc2)c1 has inhibition of 12

Per the record, CN(C)C(=O)Oc1cccc(OCCCCOc2ccc(C(F)(F)F)cc2)c1 has inhibition of 20

Per the record, CNC(=O)Oc1cccc(OCCCOc2ccc([N+](=O)[O-])cc2)c1 has inhibition of 69

Per the record, CNC(=O)Oc1ccccc1OCCOc1ccc(C(F)(F)F)cc1 has inhibition of 13

Per the record, CNC(=O)Oc1ccc(OCCCOc2ccc(C(F)(F)F)cc2)cc1 has inhibition of 2

Per the record, CNC(=O)Oc1cccc(OCCCOc2ccc(C(F)(F)F)cc2)c1 has inhibition of 61

Per the record, CNC(=O)Oc1ccc(OCCOc2ccc(C(F)(F)F)cc2)cc1 has inhibition of 2

Per the record, CNC(=O)Oc1cccc(OCCOc2ccc(C(F)(F)F)cc2)c1 has inhibition of 20

Per the record, CNC(=O)Oc1cccc(OCCCCOc2ccc([N+](=O)[O-])cc2)c1 has inhibition of 80

Per the record, CN(C)C(=O)Oc1ccccc1OCCCCOc1ccc(C(F)(F)F)cc1 has inhibition of 7

Per the record, CNC(=O)Oc1ccccc1 [PHENYL METHYLCARBAMATE] has inhibition of 46

Per the record, CNC(=O)Oc1ccc(OC/C=C/COc2ccc(C(F)(F)F)cc2)cc1 has inhibition of 3

Per the record, CNC(=O)Oc1ccccc1OC/C=C/COc1ccc(C(F)(F)F)cc1 has inhibition of 17

Per the record, CN(C)C(=O)Oc1cccc(OCCCOc2ccc(C(F)(F)F)cc2)c1 has inhibition of 27

Per the record, CN(C)C(=O)Oc1ccc(OCCCOc2ccc(C(F)(F)F)cc2)cc1 has inhibition of 1

Per the record, CN(C)C(=O)Oc1cccc(OCCOc2ccc(C(F)(F)F)cc2)c1 has inhibition of 8

Per the record, CNC(=O)Oc1ccccc1OCCCCOc1ccc(C(F)(F)F)cc1 has inhibition of 19

Per the record, CNC(=O)Oc1ccccc1OCCCOc1ccc(C(F)(F)F)cc1 has inhibition of 25

Per the record, CNC(=O)Oc1cccc(OCCCCOc2ccc(C(F)(F)F)cc2)c1 has inhibition of 62

Per the record, CNC(=O)Oc1cccc(OCCCCOc2ccccc2OC)c1 has inhibition of 46

---

Exercise: for every item that follows, state its recorded Ratio IC50.
Molecular target: Acetylcholinesterase (Musca domestica)
Assay: Ratio of MT IC50 to compound IC50 for AChE in Musca domestica (house fly) brain
// return a plain number; no unit text

Per the record, CNC(=O)Oc1cccc(OCCCOc2ccc([N+](=O)[O-])cc2)c1 has Ratio IC50 of 2

Per the record, CNC(=O)Oc1cccc(OCCCCOc2ccc([N+](=O)[O-])cc2)c1 has Ratio IC50 of 3

Per the record, CNC(=O)Oc1cccc(OCCCOc2ccc(C(F)(F)F)cc2)c1 has Ratio IC50 of 1

Per the record, CNC(=O)Oc1cccc(OCCCCOc2ccccc2[N+](=O)[O-])c1 has Ratio IC50 of 2

Per the record, CNC(=O)Oc1cccc(OCCCCOc2cccc([N+](=O)[O-])c2)c1 has Ratio IC50 of 12

Per the record, CNC(=O)Oc1cccc(OCCCCOc2ccc(C(F)(F)F)cc2)c1 has Ratio IC50 of 1

---

Exercise: for every item that follows, state its recorded IC50.
Target: Acetylcholinesterase (Musca domestica, UniProt Q7YWJ9)
Test: Dual-site binding inhibition of AChE in Musca domestica (house fly) brain
Hi, when you answer, please include the unit after the number. Thanks!

Per the record, CNC(=O)Oc1cccc(OCCCCOc2ccc(C(F)(F)F)cc2)c1 has IC50 of 107 µM

Per the record, CNC(=O)Oc1cccc(C)c1 [METOLCARB] has IC50 of 150 µM

Per the record, CNC(=O)Oc1cccc(OCCCCOc2cccc([N+](=O)[O-])c2)c1 has IC50 of 12 µM

Per the record, CNC(=O)Oc1cccc(OCCCOc2ccc(C(F)(F)F)cc2)c1 has IC50 of 105 µM

Per the record, CNC(=O)Oc1cccc(OCCCOc2ccc([N+](=O)[O-])cc2)c1 has IC50 of 70 µM

Per the record, CNC(=O)Oc1cccc(OCCCCOc2ccc([N+](=O)[O-])cc2)c1 has IC50 of 46 µM

Per the record, CNC(=O)Oc1cccc(OCCCCOc2ccccc2[N+](=O)[O-])c1 has IC50 of 61 µM

Per the record, CNC(=O)Oc1ccccc1 [PHENYL METHYLCARBAMATE] has IC50 of 766 µM

---

Molecular target: Acetylcholinesterase (Musca domestica)
Assay: Dual-site binding inhibition of AChE in Musca domestica (house fly) brain at 100 mg/l
# binarize inhibition: threshold 10% inclusive, high side true (1), low side false (0)

Could you verify whether the entry CN(C)C(=O)Oc1ccc(OC/C=C/COc2ccc(C(F)(F)F)cc2)cc1 shows inhibition of no less than 10%?
false (0)

Could you verify whether the entry CN(C)C(=O)Oc1ccc(OCCOc2ccc(C(F)(F)F)cc2)cc1 shows inhibition of no less than 10%?
false (0)

Could you verify whether the entry CN(C)C(=O)Oc1ccc(OCCCCOc2ccc(C(F)(F)F)cc2)cc1 shows inhibition of no less than 10%?
false (0)

Could you verify whether the entry CN(C)C(=O)Oc1ccccc1OCCOc1ccc(C(F)(F)F)cc1 shows inhibition of no less than 10%?
true (1)

Could you verify whether the entry CNC(=O)Oc1ccc(OCCCCOc2ccc(C(F)(F)F)cc2)cc1 shows inhibition of no less than 10%?
false (0)

Could you verify whether the entry CNC(=O)Oc1cccc(OCCCCOc2cccc([N+](=O)[O-])c2)c1 shows inhibition of no less than 10%?
true (1)

Could you verify whether the entry CN(C)C(=O)Oc1cccc(OC/C=C/COc2ccc(C(F)(F)F)cc2)c1 shows inhibition of no less than 10%?
true (1)

Could you verify whether the entry CNC(=O)Oc1cccc(OCCCCOc2ccc(Cl)cc2)c1 shows inhibition of no less than 10%?
true (1)

Could you verify whether the entry CN(C)C(=O)Oc1ccccc1OC/C=C/COc1ccc(C(F)(F)F)cc1 shows inhibition of no less than 10%?
false (0)
